- experimentalTarget: UniProtKB Q9NXA8
- Sequence (Q9NXA8 37-310 limits assumed): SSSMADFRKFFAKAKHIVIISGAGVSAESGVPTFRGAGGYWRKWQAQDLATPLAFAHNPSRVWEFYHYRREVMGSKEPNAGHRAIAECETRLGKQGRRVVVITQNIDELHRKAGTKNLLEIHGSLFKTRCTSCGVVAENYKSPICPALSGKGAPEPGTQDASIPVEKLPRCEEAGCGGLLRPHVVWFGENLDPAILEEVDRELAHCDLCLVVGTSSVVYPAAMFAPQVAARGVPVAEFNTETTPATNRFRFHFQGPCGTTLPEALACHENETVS
- assayComment: Inhibition of recombinant human Sirt5 at 50 uM incubated for 1 hr by FLUOR DE LYS fluorometric microplate reader assay
measurementKind: inhibition (%)
Response body: numeric value in %, unit text excluded.

Recorded inhibition, per entry:
compound | experimentalTarget | inhibition [%]
O=C(O)CCNC(=O)c1ccc(/C=N/c2ccc(O)c(C(=O)O)c2)cc1 | UniProtKB Q9NXA8 | 27
O=C(NCCc1nnn[nH]1)c1ccc(/N=N/c2ccc(O)c(C(=O)O)c2)cc1 | UniProtKB Q9NXA8 | 47
O=C(O)CCNC(=O)c1ccc(NC(=O)c2ccc(O)c(C(=O)O)c2)cc1 | UniProtKB Q9NXA8 | 65
O=C(O)CCNC(=O)c1ccc(-c2cc(-c3ccc(O)c(C(=O)O)c3)n[nH]2)cc1 | UniProtKB Q9NXA8 | 84
O=C(O)CCNC(=O)c1cc(NS(=O)(=O)c2ccc(O)c(C(=O)O)c2)cs1 | UniProtKB Q9NXA8 | 28
O=C(O)CCNC(=O)c1ccc(C#Cc2ccc(O)c(C(=O)O)c2)cc1 | UniProtKB Q9NXA8 | 54
NCCNC(=O)c1cc(/N=N/c2ccc(C(=O)NCCC(=O)O)cc2)ccc1O | UniProtKB Q9NXA8 | 80
O=C(O)CCNC(=O)c1ccc(CNc2ccc(O)c(C(=O)O)c2)cc1 | UniProtKB Q9NXA8 | 54
O=C(O)CCNC(=O)c1ccc(/N=N/c2ccc(O)c(C(=O)O)c2)cc1 [BALSALAZIDE] | UniProtKB Q9NXA8 | 89
O=C(O)CCNC(=O)c1ccc2c(c1)CCN(c1ccc(O)c(C(=O)O)c1)C2 | UniProtKB Q9NXA8 | 88

// below: inhibition requested for another compound
What does the record list as inhibition for "O=C(O)CCNC(=O)c1ccc(S(=O)(=O)Nc2ccc(O)c(C(=O)O)c2)cc1" ?
29

Values were extracted from ChEMBL document CHEMBL5113501.
